tested on: 855422-203-R-J1-PDC complex spheroid growth; experiment: Anticancer human tumor 855422-203-R-J1-PDC patient-derived bladder carcinoma cell line growth inhibition [AhR]; settings: curve of first compound; second compound 10 µM
pIC50: −log10 of the molar value.
PROPERTY NAME: pIC50

Sample answers from the record:
# get_value(readout='pIC50', item= Nc1ncn(C2CC(O)C(CO)S2)c(=O)n1 (stereo not given) + CC(CO)NC(=O)c1cc(-c2ccc(Cl)cc2)nn(-c2cnn(C)c2)c1=O )
< 6.52

# get_value(readout='pIC50', item= CC(C)c1c(-c2ccccc2)nc2c(C#N)c[nH]n2c1=O + Cc1cncc(-c2nc(NCCc3c[nH]c4ccccc34)c3ncn(C(C)C)c3n2)c1 )
> 7.50

# get_value(readout='pIC50', item= O=C(C=Cn1cnc(-c2cc(C(F)(F)F)cc(C(F)(F)F)c2)n1)NNc1cnccn1 + CC(CO)NC(=O)c1cc(-c2ccc(Cl)cc2)nn(-c2cnn(C)c2)c1=O )
6.59

# get_value(readout='pIC50', item= Cn1ncnc1C1c2n[nH]c(=O)c3cc(F)cc(c23)NC1c1ccc(F)cc1 (stereo not given) + CC(CO)NC(=O)c1cc(-c2ccc(Cl)cc2)nn(-c2cnn(C)c2)c1=O )
< 7.00

Field: next compound
# get_value(readout='pIC50', item= CC1COCCN1c1cc(C2(S(C)(=N)=O)CC2)nc(-c2ccnc3[nH]ccc23)n1 (stereo not given) + CC(CO)NC(=O)c1cc(-c2ccc(Cl)cc2)nn(-c2cnn(C)c2)c1=O )
< 5.00

----------
tested on: 855422-203-R-J1-PDC complex spheroid growth; test: Anticancer human tumor 855422-203-R-J1-PDC cell line growth inhibition [AhR]; conditions: second compound 10 µM; first compound 0.949 µM; stronger effect = lower value;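 further: spheroids exposed to agents for seven days before readout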;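 on viability, T/C: percent of DMSO vehicle control luminescence viability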
PROPERTY NAME: viability, T/C (%)
Expressed in %, but write only the number.

# get_value(readout='viability, T/C', item= O=C(C=Cn1cnc(-c2cc(C(F)(F)F)cc(C(F)(F)F)c2)n1)NNc1cnccn1 + Cc1ccccc1N=Nc1ccc(NC(=O)c2ccnn2C)c(C)c1 )
49.8

# get_value(readout='viability, T/C', item= O=C(C=Cn1cnc(-c2cc(C(F)(F)F)cc(C(F)(F)F)c2)n1)NNc1cnccn1 + CC(CO)NC(=O)c1cc(-c2ccc(Cl)cc2)nn(-c2cnn(C)c2)c1=O )
33.6

More entries:
# get_value(readout='viability, T/C', item= CCN(c1cc(-c2ccc(CN3CCOCC3)cc2)cc(C(=O)NCc2c(C)cc(C)[nH]c2=O)c1C)C1CCOCC1 + CC(CO)NC(=O)c1cc(-c2ccc(Cl)cc2)nn(-c2cnn(C)c2)c1=O )
103

----------
tested on: 855422-203-R-J1-PDC complex spheroid growth; test: Anticancer human tumor 855422-203-R-J1-PDC cell line growth inhibition [AhR]; conditions: second compound 1 µM; first compound 0.00316 µM; stronger effect = lower value;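 further: spheroids exposed to agents for seven days before readout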;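 on viability, T/C: percent of DMSO vehicle control luminescence viability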
// reported viability, T/C per item
Expressed in %, but write only the number.

Sample answers from the record:
# get_value(readout='viability, T/C', item= CC1COCCN1c1cc(-c2ccnn2C)c2ccnc(-c3ccn[nH]3)c2n1 (stereo unspecified) + Cc1ccccc1N=Nc1ccc(NC(=O)c2ccnn2C)c(C)c1 )
100

# get_value(readout='viability, T/C', item= Nc1ncn(C2CC(O)C(CO)O2)c(=O)n1 (stereo unspecified) + Cc1cncc(-c2nc(NCCc3c[nH]c4ccccc34)c3ncn(C(C)C)c3n2)c1 )
91.9

# get_value(readout='viability, T/C', item= Nc1ncn(C2CC(O)C(CO)O2)c(=O)n1 (stereo unspecified) + CC(CO)NC(=O)c1cc(-c2ccc(Cl)cc2)nn(-c2cnn(C)c2)c1=O )
103

# get_value(readout='viability, T/C', item= Cn1ncnc1C1c2n[nH]c(=O)c3cc(F)cc(c23)NC1c1ccc(F)cc1 (stereo unspecified) + Cc1cncc(-c2nc(NCCc3c[nH]c4ccccc34)c3ncn(C(C)C)c3n2)c1 )
76.4

# get_value(readout='viability, T/C', item= Cn1ncnc1C1c2n[nH]c(=O)c3cc(F)cc(c23)NC1c1ccc(F)cc1 (stereo unspecified) + Cc1ccccc1N=Nc1ccc(NC(=O)c2ccnn2C)c(C)c1 )
97.7

More entries:
# get_value(readout='viability, T/C', item= CC1COCCN1c1cc(-c2ccnn2C)c2ccnc(-c3ccn[nH]3)c2n1 (stereo unspecified) + Cc1cncc(-c2nc(NCCc3c[nH]c4ccccc34)c3ncn(C(C)C)c3n2)c1 )
77.2
